Data provenance: ChEMBL document CHEMBL3880431

test: Lipophilicity, log P of the compound; type: physicochemical; details: octanol/water; read-out: logP
observedProperty: logP

> print(dat)
                                    molecule  observedmeasurement
 1  CC(N)c1ccc2ccccc2c1 (stereo unspecified)                 2.88
 2           C=CCNc1nc(-c2cccs2)c(CC(=O)O)s1                 2.29
 3             C1CN2CCC1/C(=N\Nc1nnn[nH]1)C2                 1.56
 4  NC1=N[NH+]([O-])c2ccccc2[NH+]1[O-] (stereo unspecified)                 1.22
 5              O=C(O)C(=O)Cc1c[nH]c2ccccc12                 1.59
 6                NCc1ccc2c3c(cccc13)C(=O)N2                 1.36
 7            Nc1nnc(-c2cc3ccc(O)cc3oc2=O)s1                 2.05
 8  C/N=C(/NC)SC1CC(=O)N(c2cccc(C(=O)O)c2)C1=O (stereo unspecified)                 1.25
 9  O=[N+]([O-])c1cccc(-c2noc(Cc3ccccc3)n2)c1                 3.33
10        O=C(CSc1nc2cccnc2[nH]1)NCCc1ccccc1                 2.43
11              O=C(O)CNS(=O)(=O)c1ccc(F)cc1                 0.66
12  O=C(O)C(O)c1cccc([N+](=O)[O-])c1 (stereo unspecified)                 0.98
13              COc1ccc(C(=O)CCC(=O)O)c(C)c1                  1.6
14  O=C(O)c1ccc2c(c1)C(=O)N(c1ccc(Cl)cc1)C2=O                 3.03
15   Cc1ccccc1C(=O)Nc1cc(C(=O)O)cc(C(=O)O)c1                 2.62
16            CCc1cc(=O)oc2cc(OCC(N)=O)ccc12                 1.46
17            COc1ccc(C(=O)n2nnc3ccccc32)cc1                 2.77
18       Cc1ccc(S(=O)(=O)NC(=O)NCc2ccco2)cc1                  1.2
19         NC(N)N/N=C/c1cc(=O)[nH]c(=O)[nH]1                -1.79
20  O=[N+]([O-])c1ccc(O)c(/C=N/c2cccc(CO)c2)c1                 2.71
21              Cc1nccn1S(=O)(=O)c1ccc(F)cc1                 0.89
22   N#Cc1ccc[n+](Cc2cc(=O)[nH]c(=O)[nH]2)c1                 0.38
23       NC(=O)c1ccc(NC(=O)/C=C\C(=O)O)cc1Cl                 0.79
24  O=C(O)Cn1c(=O)c2cc3c(=O)n(CC(=O)O)c(=O)c3cc2c1=O                -0.68
25          O=C(Cc1ccc(F)cc1)NNC(=O)Cn1cnnn1                -0.66
26               Nc1ccccc1N/C=C1/C(=O)CNC1=O                -0.57
